- EXPERIMENTAL_TARGET: T1, MUC1 (Mucin-1) as expressed by human cancer cell lines (human, UniProt P15941 24-1255)
- T1 construct: whole, on cells; Endogenous antigen on the cell surface (flow cytometry) or in cell lysates (immunoprecipitation, western blot); also called MUC1 antigen; antigen recognized by the MP1 monoclonal antibody
- T1 sequence (P15941 24-1255): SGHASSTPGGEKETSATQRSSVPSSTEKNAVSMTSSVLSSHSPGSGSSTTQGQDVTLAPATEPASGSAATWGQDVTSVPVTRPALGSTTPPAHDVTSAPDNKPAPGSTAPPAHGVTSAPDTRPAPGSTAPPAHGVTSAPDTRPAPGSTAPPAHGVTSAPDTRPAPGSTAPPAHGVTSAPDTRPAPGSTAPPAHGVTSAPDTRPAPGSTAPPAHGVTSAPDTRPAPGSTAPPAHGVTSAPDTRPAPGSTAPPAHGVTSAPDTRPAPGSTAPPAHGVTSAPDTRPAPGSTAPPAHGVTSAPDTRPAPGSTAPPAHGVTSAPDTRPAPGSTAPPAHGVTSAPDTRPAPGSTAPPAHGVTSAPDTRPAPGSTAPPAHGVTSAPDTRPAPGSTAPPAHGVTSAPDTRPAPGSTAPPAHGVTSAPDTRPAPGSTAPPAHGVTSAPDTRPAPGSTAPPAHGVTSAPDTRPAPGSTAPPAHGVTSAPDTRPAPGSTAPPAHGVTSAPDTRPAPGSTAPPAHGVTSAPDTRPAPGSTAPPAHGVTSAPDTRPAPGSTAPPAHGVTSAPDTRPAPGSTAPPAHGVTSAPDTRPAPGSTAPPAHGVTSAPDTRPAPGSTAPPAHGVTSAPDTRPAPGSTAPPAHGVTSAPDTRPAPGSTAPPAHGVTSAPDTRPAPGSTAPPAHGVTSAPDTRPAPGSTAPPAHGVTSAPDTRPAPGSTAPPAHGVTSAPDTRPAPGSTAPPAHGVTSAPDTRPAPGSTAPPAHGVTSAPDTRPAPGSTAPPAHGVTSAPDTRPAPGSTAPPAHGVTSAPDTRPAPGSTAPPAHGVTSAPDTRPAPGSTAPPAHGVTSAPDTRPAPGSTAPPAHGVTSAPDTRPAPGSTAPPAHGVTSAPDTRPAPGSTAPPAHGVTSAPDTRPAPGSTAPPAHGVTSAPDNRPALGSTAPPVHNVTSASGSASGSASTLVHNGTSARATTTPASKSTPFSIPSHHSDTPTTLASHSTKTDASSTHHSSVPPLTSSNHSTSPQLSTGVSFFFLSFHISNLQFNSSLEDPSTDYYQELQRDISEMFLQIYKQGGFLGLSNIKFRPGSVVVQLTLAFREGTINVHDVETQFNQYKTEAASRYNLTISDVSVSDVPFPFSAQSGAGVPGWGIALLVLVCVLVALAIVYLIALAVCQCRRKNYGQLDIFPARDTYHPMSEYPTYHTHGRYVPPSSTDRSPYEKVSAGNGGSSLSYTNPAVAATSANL
- TEST_DETAILS: flow cytometry, Capan-2 cells stained with transient-expression culture solution; positive rate against the negative control
MEASUREMENT_TYPE: Capan-2 cell surface binding (%)
One number for each entry, in %.

Below, each entry is followed by its recorded Capan-2 cell surface binding (%) result.
[[record]]
binder = "humanized MP1 antibody VH9/VL2 (antibody, V domains shown, tested as ExpiCHO-S culture solution) VH: QVQLVESGGGVVQPGRSLRLSCAASGFTFSSYWMHWVRQAPGKGLEWVAVIRYKPYGSEKYYAQSVKGRFTISRDDSKSTLYLQMSSLRAEDTAVYYCAWAMITSDGYAFDYWGQGTLVTVSS VL: DIVMTQSPDSLAVSLGERATISCKSSQSVLLSSNQKNYLAWYQQKPGQPPKLLIYWASTRESGVPDRFSGSGSGTEFTLTISSLQAEDVAVYYCQQSFSYPLTFGQGTKLEIK"
units_text = "%"
measured_number = 7.04

[[record]]
binder = "humanized MP1 antibody VH4/VL4 (antibody, V domains shown, tested as ExpiCHO-S culture solution) VH: EVKVVESGGGLVQPGGSLRLSCAASGITFSDYWMNWVRQAPGKGLEWVAQIRNKPYNYETYYSNSVKGRFTISRDDAKSSVYLQMSSLRAEDTAVYYCTWAMITSDGYAMDYWGQGTLVTVSS VL: EIVMTQSPGTLSLSPGERATLSCRSSQSLLLSSNQKNYLAWYQQKPGQAPRLLIYWASTRESGIPDRFSGSGSGTDFTLTISRVEPEDFAVYYCQQCFSYPLTFGQGTKLEIK"
units_text = "%"
measured_number = 18.1

[[record]]
binder = "humanized MP1 antibody VH8/VL6 (antibody, V domains shown, tested as ExpiCHO-S culture solution) VH: QVQLVESGGGVVQPGRSLRLSCAASGITFSSYWMNWVRQAPGKGLEWVAQIRNKPYNYEKYYAQSVKGRFTISRDDSKSTLYLQMSSLRAEDTAVYYCAWAMITSDGYAMDYWGQGTLVTVSS VL: EIVLTQSPGTLSLSPGERATLSCRASQSVLLSSSQKNYLAWYQQKPGQAPRLLIYWASSRATGIPDRFSGSGSGTDFTLTISRLEPEDFAVYYCQQSFSSPYTFGQGTKLEIK"
units_text = "%"
measured_number = 9.97

[[record]]
binder = "humanized MP1 antibody VH1/VL2 (antibody, V domains shown, tested as ExpiCHO-S culture solution) VH: EVKVVESGGGLVQPGRSLRLSCTASGITFSDYWMNWVRQAPGKGLEWVGQIRNKPYNYETYYSQSVKGRFTISRDDSKSIAYLQMSSLKTEDTAVYYCTWAMITSDGYAMDYWGQGTLVTVSS VL: DIVMTQSPDSLAVSLGERATISCKSSQSVLLSSNQKNYLAWYQQKPGQPPKLLIYWASTRESGVPDRFSGSGSGTEFTLTISSLQAEDVAVYYCQQSFSYPLTFGQGTKLEIK"
units_text = "%"
measured_number = 13.5

[[record]]
binder = "humanized MP1 antibody VH8/VL2 (antibody, V domains shown, tested as ExpiCHO-S culture solution) VH: QVQLVESGGGVVQPGRSLRLSCAASGITFSSYWMNWVRQAPGKGLEWVAQIRNKPYNYEKYYAQSVKGRFTISRDDSKSTLYLQMSSLRAEDTAVYYCAWAMITSDGYAMDYWGQGTLVTVSS VL: DIVMTQSPDSLAVSLGERATISCKSSQSVLLSSNQKNYLAWYQQKPGQPPKLLIYWASTRESGVPDRFSGSGSGTEFTLTISSLQAEDVAVYYCQQSFSYPLTFGQGTKLEIK"
units_text = "%"
measured_number = 11.4

[[record]]
binder = "humanized MP1 antibody VH8/VL1 (antibody, V domains shown, tested as ExpiCHO-S culture solution) VH: QVQLVESGGGVVQPGRSLRLSCAASGITFSSYWMNWVRQAPGKGLEWVAQIRNKPYNYEKYYAQSVKGRFTISRDDSKSTLYLQMSSLRAEDTAVYYCAWAMITSDGYAMDYWGQGTLVTVSS VL: DIVMTQSPDSLAVSLGERATISCKSSQSLLLSSNQKNYLAWYQQKPGQPPKLLIYWASTRESGVPDRFSGSGSGTEFTLTISSVQAEDVAVYYCQQCFSYPLTFGQGTKLEIK"
units_text = "%"
measured_number = 6.65

[[record]]
binder = "humanized MP1 antibody VH4/VL7 (antibody, V domains shown, tested as ExpiCHO-S culture solution) VH: EVKVVESGGGLVQPGGSLRLSCAASGITFSDYWMNWVRQAPGKGLEWVAQIRNKPYNYETYYSNSVKGRFTISRDDAKSSVYLQMSSLRAEDTAVYYCTWAMITSDGYAMDYWGQGTLVTVSS VL: DIVMTQSPLSLPVTPGEPASISCRSSQSLLLSSNQKNYLAWYLQKPGQSPQLLIYWASTRESGVPDRFSGSGSGTDFTLKISRVEAEDVGVYYCQQCFSYPLTFGQGTKLEIK"
units_text = "%"
measured_number = 11

[[record]]
binder = "humanized MP1 antibody VH8/VL8 (antibody, V domains shown, tested as ExpiCHO-S culture solution) VH: QVQLVESGGGVVQPGRSLRLSCAASGITFSSYWMNWVRQAPGKGLEWVAQIRNKPYNYEKYYAQSVKGRFTISRDDSKSTLYLQMSSLRAEDTAVYYCAWAMITSDGYAMDYWGQGTLVTVSS VL: DIVMTQSPLSLPVTPGEPASISCRSSQSLLLSSNQKNYLAWYLQKPGQSPQLLIYWGSTRESGVPDRFSGSGSGTDFTLKISRVEAEDVGVYYCQQSFSYPLTFGQGTKLEIK"
units_text = "%"
measured_number = 7.16

[[record]]
binder = "humanized MP1 antibody VH7/VL4 (antibody, V domains shown, tested as ExpiCHO-S culture solution) VH: QVKVVESGGGVVQPGRSLRLSCAASGITFSDYWMNWVRQAPGKGLEWVAQIRNKPYNYETYYSNSVKGRFTISRDDSKSTVYLQMSSLRAEDTAVYYCTWAMITSDGYAMDYWGQGTLVTVSS VL: EIVMTQSPGTLSLSPGERATLSCRSSQSLLLSSNQKNYLAWYQQKPGQAPRLLIYWASTRESGIPDRFSGSGSGTDFTLTISRVEPEDFAVYYCQQCFSYPLTFGQGTKLEIK"
units_text = "%"
measured_number = 12.7


Now examine the next entry.
# binder humanized MP1 antibody VH8/VL5 (antibody, V domains shown, tested as ExpiCHO-S culture solution) VH: QVQLVESGGGVVQPGRSLRLSCAASGITFSSYWMNWVRQAPGKGLEWVAQIRNKPYNYEKYYAQSVKGRFTISRDDSKSTLYLQMSSLRAEDTAVYYCAWAMITSDGYAMDYWGQGTLVTVSS VL: EIVLTQSPGTLSLSPGERATLSCRASQSVLLSSNQKNYLAWYQQKPGQAPRLLIYWASSRETGIPDRFSGSGSGTDFTLTISRLEPEDFAVYYCQQSFSYPLTFGQGTKLEIK ; its Capan-2 cell surface binding (%) = 6.61
